tested on: Mycobacterium tuberculosis; test: Antitubercular activity against Mycobacterium tuberculosis H37Rv assessed as inhibition of bacterial growth incubated for 7 days by REMA method; assay type: functional; conditions: Mycobacterium tuberculosis, H37Rv, 168 h; time 7 day; read-out: MIC90

{"columns": ["smiles_representation", "MIC90"],
 "data": [
  ["Cc1ccc(Nc2nc(-c3cc(C(=O)NCc4cccs4)no3)cs2)cc1", "> 20 µg/mL"],
  ["O=C(Nc1ccccc1)c1cc(-c2csc(Nc3ccc(C(F)(F)F)cc3)n2)on1", "> 20 µg/mL"],
  ["Cc1ccc(Nc2nc(-c3cc(C(=O)Nc4ccc(Cl)cc4)no3)cs2)cc1", "> 40 µg/mL"],
  ["O=C(Nc1ccccn1)c1cc(-c2csc(Nc3ccc(CO)cc3)n2)on1", "> 20 µg/mL"]
]}
